Each entry below lists one item and its recorded Plant response rating, Morningglory value.
test system: morningglory (Ipomoea spp.); test: Test A pre-/postemergence plant response; assay type: in vivo; settings: Postemergence, 125 g ai/ha; 0 to 100 scale where 0 is no effect and 100 is complete control
// print number alone

Field: example entries. Status: answers known.
compound	Plant response rating, Morningglory
CCCn1c(-c2ccc3ccccc3c2)ncc(C(=O)C2=C(O)C3CCC(C3)C2=O)c1=O (stereo not shown)	40
O=C1CCCC(O)=C1C(=O)c1cnc(-c2ccsc2)n(C2CCOCC2)c1=O	100
COc1ccc(-n2c(-c3cccc(Br)c3)ncc(C(=O)C3=C(O)CCCC3=O)c2=O)cc1	0
COCCn1c(-c2ccco2)ncc(C(=O)C2=C(O)CCCC2=O)c1=O	100
O=C1CCCC(O)=C1C(=O)c1cnc(-c2ccco2)n(C2CCCCC2)c1=O	90

# context switch: different compound, same Plant response rating, Morningglory
Could you please provide reported Plant response rating, Morningglory for Cc1cccc(-c2ncc(C(=O)C3=C(O)CCCC3=O)c(=O)n2-c2cc(F)ccc2C)c1 ? Thanks!
50

---

tested on: giant foxtail (Setaria faberii); assay: Test B pre-/postemergence plant response; assay type: in vivo; settings: 62 g ai/ha, postemergence; 0 is no effect, 100 is complete control; 13 to 15 days
property.label: Foxtail, Giant plant response rating (0 to 100 scale)
// print number alone

Field: example entries. Status: answers known.
molecule	result
O=C1CCCC(O)=C1C(=O)c1cnc(C2CC2)n(-c2ccccc2)c1=O	80
O=C1CCCC(O)=C1C(=O)c1cnc(-c2ccc(Br)cc2)n(-c2ccccc2)c1=O	85
CCCc1ncc(C(=O)C2=C(O)CCCC2=O)c(=O)n1CCC	70
CC(C)Cc1ncc(C(=O)C2=C(O)CCCC2=O)c(=O)n1-c1ccccc1	80
COCCn1c(-c2cccs2)ncc(C(=O)C2=C(O)CCCC2=O)c1=O	60
COCCn1c(-c2ccsc2)ncc(C(=O)C2=C(O)CCCC2=O)c1=O	75
O=C1CCCC(O)=C1C(=O)c1cnc(-c2cccs2)n(CC2CCCO2)c1=O (stereo not drawn)	75
CCCCCCn1c(-c2ccccc2)ncc(C(=O)C2=C(O)CCCC2=O)c1=O	75

Could you please provide reported Foxtail, Giant plant response rating (0 to 100 scale) for CCn1c(-c2cc(F)cc(F)c2)ncc(C(=O)C2=C(O)CCCC2=O)c1=O ? Thanks!
75

Could you please provide reported Foxtail, Giant plant response rating (0 to 100 scale) for O=C1CCCC(O)=C1C(=O)c1cnc(-c2ccccc2)n(C2CCCCC2)c1=O ? Thanks!
95

Could you please provide reported Foxtail, Giant plant response rating (0 to 100 scale) for O=C1CCCC(O)=C1C(=O)c1cnc(-c2ccccc2)n(C2CC2)c1=O ? Thanks!
70

Could you please provide reported Foxtail, Giant plant response rating (0 to 100 scale) for O=C1CCCC(O)=C1C(=O)c1cnc(C2CCCC2)n(-c2ccccc2)c1=O ? Thanks!
75

---

tested on: windgrass (Apera spica-venti); test: Test B postemergence plant response; assay type: in vivo; settings: Postemergence, 62 g ai/ha; scale 0 (no effect) to 100 (complete control); 13 to 15 days
# label = T if Plant response rating, Windgrass >= 60 else F

Example entries and their recorded answers appear below.
compound	class.label
Cc1ccc(Cl)cc1-n1c(-c2ccccc2)ncc(C(=O)C2=C(O)CCCC2=O)c1=O [Compound 52]	T
CCCCc1ncc(C(=O)C2=C(O)CCCC2=O)c(=O)n1-c1ccccc1C [Compound 62]	F
O=C1CCCC(O)=C1C(=O)c1cnc(-c2cccc(Cl)c2)n(-c2ccccc2)c1=O [Compound 34]	F

We next turn to a different compound, shown below.
Is Plant response rating, Windgrass for Cc1cccc(-n2c(-c3ccccc3)ncc(C(=O)C3=C(O)CCCC3=O)c2=O)c1C [Compound 27] at or above 60?
F

---

Each entry below lists one item and its recorded Plant response rating, Corn value.
test system: corn (Zea mays); experiment: Test A pre-/postemergence plant response; type: in vivo; conditions: Postemergence, 125 g ai/ha; 0 to 100 scale where 0 is no effect and 100 is complete control
// print number alone

Field: example entries. Status: answers known.
molecule	result
Cc1cccc(-c2ncc(C(=O)C3=C(O)CCCC3=O)c(=O)n2-c2cc(F)ccc2C)c1 [Compound 178]	0
CCCn1c(-c2cccc(OC)c2)ncc(C(=O)C2=C(O)CCCC2=O)c1=O [Compound 100]	0
O=C1CCCC(O)=C1C(=O)c1cnc(C2CCC2)n(-c2ccccc2)c1=O [Compound 114]	10

# context switch: different molecule, same Plant response rating, Corn
Could you please provide reported Plant response rating, Corn for C#CCn1c(-c2cc(F)cc(F)c2)ncc(C(=O)C2=C(O)CCCC2=O)c1=O [Compound 170] ? Thanks!
20

---

system: sowthistle (common sowthistle, Sonchus oleraceous); experiment: Test D pre-/postemergence plant response; format: in vivo; settings: Postemergence; 62 g ai/ha; scale 0 to 100 (0 no effect, 100 complete control)
Each entry below lists one item and its recorded Plant response rating, Sowthistle value.

Field: example entries. Status: answers known.
molecule	property.label	result
CCCn1c(-c2ccccc2)ncc(C(=O)C2=C(O)C3CCC(C3)C2=O)c1=O (centres unmarked)	Plant response rating, Sowthistle	98
O=C1CCCC(O)=C1C(=O)c1cnc(-c2ccccc2)n(C2CCCCC2)c1=O	Plant response rating, Sowthistle	100
Cc1ccc(Cl)cc1-n1c(-c2ccccc2)ncc(C(=O)C2=C(O)CCCC2=O)c1=O	Plant response rating, Sowthistle	98
CCCCn1c(-c2ccccc2)ncc(C(=O)C2=C(O)C3CCC(C3)C2=O)c1=O (centres unmarked)	Plant response rating, Sowthistle	98

Could you please provide reported Plant response rating, Sowthistle for O=C1CCCC(O)=C1C(=O)c1cnc(-c2cccnc2)n(-c2ccccc2)c1=O ? Thanks!
100

---

system: blackgrass (Alopecurus myosuroides); test: Test B pre-/postemergence plant response; format: in vivo; details: 31 g ai/ha, postemergence; scale 0 to 100, 0 is no effect, 100 is complete control
Each entry below lists one item and its recorded Plant response rating, Blackgrass value.
// print number alone

Field: example entries. Status: answers known.
molecule	tested.target	Plant response rating, Blackgrass
COCCn1c(-c2ccco2)ncc(C(=O)C2=C(O)CCCC2=O)c1=O [Compound 111]	blackgrass (Alopecurus myosuroides)	5
COCCOCCn1c(-c2ccccc2)ncc(C(=O)C2=C(O)CCCC2=O)c1=O [Compound 91]	blackgrass (Alopecurus myosuroides)	10
CCCc1ncc(C(=O)C2=C(O)CCCC2=O)c(=O)n1CCC [Compound 72]	blackgrass (Alopecurus myosuroides)	0

Could you please provide reported Plant response rating, Blackgrass for CC(C)Cc1ncc(C(=O)C2=C(O)CCCC2=O)c(=O)n1-c1ccccc1 [Compound 68] ? Thanks!
0

Could you please provide reported Plant response rating, Blackgrass for CCCCn1c(CCC)ncc(C(=O)C2=C(O)CCCC2=O)c1=O [Compound 75] ? Thanks!
0

---

test system: windgrass (Apera spica-venti); assay: Test B postemergence plant response; assay type: in vivo; details: 31 g ai/ha, postemergence; scale 0 to 100, 0 is no effect, 100 is complete control
Each entry below lists one item and its recorded Plant response rating, Windgrass value.
// print number alone

Field: example entries. Status: answers known.
compound	result
O=C1CCCC(O)=C1C(=O)c1cnc(C2CC2)n(-c2ccccc2)c1=O [Compound 87]	55
Cc1cccc(-n2c(-c3ccccc3)ncc(C(=O)C3=C(O)CCCC3=O)c2=O)c1F [Compound 58]	35
O=C1CCCC(O)=C1C(=O)c1cnc(-c2ccccc2)n(C2CC2)c1=O [Compound 90]	0

# context switch: different compound, same Plant response rating, Windgrass
Could you please provide reported Plant response rating, Windgrass for CCCn1c(-c2ccsc2)ncc(C(=O)C2=C(O)CCCC2=O)c1=O [Compound 93] ? Thanks!
5

---

Each entry below lists one item and its recorded Plant response rating, Foxtail, Giant value.
system: giant foxtail (Setaria faberii); test: Test A pre-/postemergence plant response; assay type: in vivo; settings: Preemergence, 500 g ai/ha; visual injury, 0 to 100 scale (0 no effect, 100 complete control), approx. ten days

Field: example entries. Status: answers known.
1) CC(C)c1ncc(C(=O)C2=C(O)CCCC2=O)c(=O)n1-c1ccccc1 90
2) CCOCCn1c(-c2ccccc2)ncc(C(=O)C2=C(O)CCCC2=O)c1=O 80
3) Cc1cccc(-n2c(-c3ccccc3)ncc(C(=O)C3=C(O)CCCC3=O)c2=O)c1C 90

Could you please provide reported Plant response rating, Foxtail, Giant for Cc1ccc(-n2c(-c3ccccc3)ncc(C(=O)C3=C(O)CCCC3=O)c2=O)c(Cl)c1 ? Thanks!
30

Could you please provide reported Plant response rating, Foxtail, Giant for CCCn1c(-c2ccc(OC)cc2)ncc(C(=O)C2=C(O)CCCC2=O)c1=O ? Thanks!
60

Could you please provide reported Plant response rating, Foxtail, Giant for Cc1cccc(-n2c(-c3cccc(Cl)c3)ncc(C(=O)C3=C(O)CCCC3=O)c2=O)c1 ? Thanks!
80

Could you please provide reported Plant response rating, Foxtail, Giant for CCCCCCn1c(-c2ccccc2)ncc(C(=O)C2=C(O)CCCC2=O)c1=O ? Thanks!
40

Could you please provide reported Plant response rating, Foxtail, Giant for CCCc1ncc(C(=O)C2=C(O)CCCC2=O)c(=O)n1CCC ? Thanks!
30
